Tested on: KP-4
Assay: Proliferation assay (CellTiter Glo), KP-4
Format: cell-based
Details: Homo sapiens, relative EC50, 96 hours, read-out: Re EC50
reported endpoint: pEC50
One number for each entry, as −log10 of the molar value.

Reported pEC50 for CC(=O)O[C@@]12C[C@@H](C)[C@]3(O)C4C=C(C)C(=O)[C@@]4(O)CC(CO)=C[C@H]3[C@@H]1C2(C)C (stereo partly shown) [Compound K-101A, Prostratin] was 6.72

====

Test system: lymphoma cell lines
Experiment: Proliferation assay, 9 lymphoma cell lines
Format: cell-based
Conditions: among the sensitive lymphoma cell lines; read-out: IC50 ranges
pIC50: −log10 of the molar value.
reported endpoint: pIC50

molecule="C/C=C(/C)C(=O)O[C@H]1C(C)=C[C@]23C(=O)[C@@H](C=C(CO)[C@@H](O)[C@]12O)[C@H]1[C@@H](C[C@H]3C)C1(C)C [Compound K-102, Ingenol-3-angelate, reference compound]" endpoint_result="8.30 to 9.10"

For the molecule CC(=O)O[C@@]12C[C@@H](C)[C@]3(O)C4C=C(C)C(=O)[C@@]4(O)CC(CO)=C[C@H]3[C@@H]1C2(C)C (some centres unmarked) [Compound K-101A, Prostratin] , the measured pIC50 on lymphoma cell lines was 6.55 to 7.11
